Target: Type-1 angiotensin II receptor (Oryctolagus cuniculus, UniProt P34976)
Sequence (P34976 whole entry): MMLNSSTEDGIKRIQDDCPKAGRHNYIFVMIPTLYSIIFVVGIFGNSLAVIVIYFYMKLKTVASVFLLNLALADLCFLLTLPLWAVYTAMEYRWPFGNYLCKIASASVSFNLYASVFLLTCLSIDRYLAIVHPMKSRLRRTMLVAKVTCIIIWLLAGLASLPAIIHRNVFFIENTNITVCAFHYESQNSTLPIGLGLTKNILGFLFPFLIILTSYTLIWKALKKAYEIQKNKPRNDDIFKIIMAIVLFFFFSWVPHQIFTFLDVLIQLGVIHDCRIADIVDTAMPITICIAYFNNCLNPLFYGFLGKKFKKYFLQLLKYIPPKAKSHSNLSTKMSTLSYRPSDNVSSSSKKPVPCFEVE
Assay: Antagonist activity at Oryctolagus cuniculus (rabbit) aortic AT1 receptor
Conditions: read-out: IC50
PROPERTY: IC50

Exam item: Fill blank: measured IC50 of the molecule `CCCCC(=O)Nc1ccc(Cl)c(-n2nc(CCC)n(Cc3ccc(-c4ccccc4S(=O)(=O)NC(=O)c4cc(Cl)ccc4Cl)cc3F)c2=O)c1` is ____.
Marked response: 0.19 nM
